These entries and their values trace back to patent US20100093702A1.

Target: human adenosine A1 receptor (Homo sapiens)
Sequence (P30542 1-326): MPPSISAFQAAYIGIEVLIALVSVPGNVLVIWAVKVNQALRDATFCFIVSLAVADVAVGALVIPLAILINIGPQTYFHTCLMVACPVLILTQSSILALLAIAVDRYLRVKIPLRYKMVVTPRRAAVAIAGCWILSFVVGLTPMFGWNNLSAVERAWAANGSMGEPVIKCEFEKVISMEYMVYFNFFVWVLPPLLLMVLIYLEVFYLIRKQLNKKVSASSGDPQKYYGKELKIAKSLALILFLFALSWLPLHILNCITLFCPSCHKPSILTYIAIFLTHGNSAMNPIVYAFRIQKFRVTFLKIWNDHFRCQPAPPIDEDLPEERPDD
Assay: Adenosine A1 Receptor Functional Assay (A1GAL2)
Settings: CHO-K1 cells, cAMP inducible beta-galactosidase reporter, 4 nM r-PIA/1 uM Forskolin challenge
assay_readout: pKi
// returns pKi (minus log10 of molar concentration), number only

Nc1nc(-c2cc3ccccc3o2)nc2sc(CN3CCC(F)CC3)cc12; 6.20
Nc1nc(-c2ccon2)nc2sc(CN3CCOCC3)cc12; 6.17
Nc1nc(-c2ccc(C(F)F)o2)nc2sc(CN3CCOCC3)cc12; 5.57
Nc1nc(-c2ccc(Cl)o2)nc2sc(CN3CC=CCC3)cc12; 6.73

API: the following record is the query input.
Prompt: Lookup: pKi / human adenosine A1 receptor (Homo sapiens) / CC(C)c1ccc(-c2nc(N)c3cc(CN4[C@H](C)CCC[C@@H]4C)sc3n2)o1
Response: 6.84
